B1: Ankyrin repeat and SOCS box protein 14, residues 532 to 572; numbered along this chain, A6NK59 (parent)
chain: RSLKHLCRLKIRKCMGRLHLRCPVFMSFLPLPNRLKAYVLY

- Variants of: B1
- testName: abundance fitness (aPCA) (normalised: wild type 0, dead -1); higher = more abundant; growth selection in yeast, the domain comes from the species named
- studyConditions: Homo sapiens
Hi, to clarify the labels: Condition met covers abundance fitness from -0.05 upward, Condition not met covers anything below -0.05.

For orientation, consider the following solved cases.
biopolymerSequence	labelValue
RSLKHLCRLKIRKCMGRLHLRCPVFMSFLPLPNRLKAYVLC [Y41C]	Condition met
RSLKHLCRLKIRECMGRLHLRCPVFMSFLPLPNRLKAYVLY [K13E]	Condition met
RSLKHLCRLKIRKCMGRLHLRCPLFMSFLPLPNRLKAYVLY [V24L]	Condition not met

Task item: Hello, I need to know if RSLKHLCRLKIRKCMGRLHLRCPVFMSFLPLPYRLKAYVLY [N33Y] has measured abundance fitness not below -0.05. Thanks!
Reply: Condition not met

Task item: Here is the next variant: RSLKHLCRLKIRKCMGRLHLRCPVGMSFLPLPNRLKAYVLY [F25G]
Reply: Condition met
